All figures here come from paper PMC4336329.

biological target: human ether-à-go-go-related gene (hERG) potassium channel (human); assay: primary screen, population patch clamp on CHO cells stably expressing hERG; higher = less effect of the substance;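 note: peak tail current of the secondary pulse compared with the same well before compound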
Sequence (Q12809 whole entry, looked up): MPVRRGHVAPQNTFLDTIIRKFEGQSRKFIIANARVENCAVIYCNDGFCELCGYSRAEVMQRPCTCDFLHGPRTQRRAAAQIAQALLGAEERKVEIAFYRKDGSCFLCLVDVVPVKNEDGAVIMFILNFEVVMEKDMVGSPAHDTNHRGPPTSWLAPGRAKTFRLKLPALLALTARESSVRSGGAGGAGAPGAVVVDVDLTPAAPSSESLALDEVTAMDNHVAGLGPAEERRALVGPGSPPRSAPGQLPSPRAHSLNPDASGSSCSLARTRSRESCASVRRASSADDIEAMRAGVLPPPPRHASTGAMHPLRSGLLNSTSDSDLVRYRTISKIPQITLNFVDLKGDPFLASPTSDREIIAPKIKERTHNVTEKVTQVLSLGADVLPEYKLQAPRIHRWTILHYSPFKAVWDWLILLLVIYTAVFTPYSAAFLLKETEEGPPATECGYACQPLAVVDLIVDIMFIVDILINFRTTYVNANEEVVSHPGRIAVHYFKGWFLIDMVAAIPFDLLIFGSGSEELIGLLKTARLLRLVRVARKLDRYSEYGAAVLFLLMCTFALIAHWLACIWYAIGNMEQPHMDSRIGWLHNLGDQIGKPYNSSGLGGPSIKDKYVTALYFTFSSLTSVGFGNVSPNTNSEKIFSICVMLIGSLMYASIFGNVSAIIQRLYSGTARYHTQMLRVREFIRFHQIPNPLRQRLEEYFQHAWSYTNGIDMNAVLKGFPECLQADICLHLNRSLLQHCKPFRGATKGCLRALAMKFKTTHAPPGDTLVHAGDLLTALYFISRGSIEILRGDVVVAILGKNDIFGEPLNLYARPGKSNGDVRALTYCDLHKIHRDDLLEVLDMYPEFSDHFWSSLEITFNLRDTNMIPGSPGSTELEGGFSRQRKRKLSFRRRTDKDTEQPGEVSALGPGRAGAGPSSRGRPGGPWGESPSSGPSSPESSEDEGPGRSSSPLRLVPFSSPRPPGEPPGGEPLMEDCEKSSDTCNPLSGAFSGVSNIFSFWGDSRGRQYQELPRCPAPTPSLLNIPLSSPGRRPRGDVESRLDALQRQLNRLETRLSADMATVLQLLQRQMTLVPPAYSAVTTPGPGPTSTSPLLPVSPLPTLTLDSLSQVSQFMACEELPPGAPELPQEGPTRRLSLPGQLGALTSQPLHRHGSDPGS
The whole screen tested about 310,000 compounds, of which about 14,000 (4.5%) showed an effect of 50% or more. Effects have a minus sign here. This excerpt belongs to a sample that is enriched for strong results.
quantity: hERG current change (%, negative = inhibition) at 10uM
I'd appreciate it if you included the unit after the number.

As a guide, the following entries are already answered.
Cc1ccc(NC(=O)c2cc(=O)n(Cc3ccccc3)c(=O)[nH]2)cc1C :: 35.8%
COC(=O)c1cccc(Oc2cccc(C(F)(F)F)c2)n1 :: 13%
CCOC(=O)C1(CCOc2ccccc2)CCN(Cc2cccc(OC)c2)CC1 :: -76.1%

Request the reported hERG current change (%, negative = inhibition) at 10uM associated with CN(C)CCN1C(=O)C2C3C=CC(C3)C2C1=O (stereo not shown) 20.6%

Note, next up: "COC(=O)c1cn(S(=O)(=O)c2ccccc2)c2ccccc12" 13%

Same for CCOc1ccc(NC(=O)C(CC)n2nc(C)c3c(C)n(-c4ccccc4)nc3c2=O)cc1 (stereo not shown) -30.1%

Please give the result for "CCCCNC(=O)c1ccc2c(c1)ncn2C1CCCC1" too. -16.7%

Item: COc1ccc(-n2cnc3cc(C(=O)NCC4CCCO4)ccc32)cc1 (stereo not shown) -17.9%

Then this molecule: "CCOC(=O)C1(CCOc2ccccc2)CCN(Cc2cccc(OCCO)c2)CC1" -83.4%

Consider next the molecule "CC(C)CCNC(=O)c1ccc2c(c1)ncn2C1CCCC1" in the same way. -54.8%
